Data provenance is PubChem BioAssay (NCI).

Tested on: NCI-H460 lung
experiment description: NCI tumour cell line growth inhibition, 48 h
Where a SMILES comes first, the peptide text is derived from it. Bridges are numbered along the chain shown (N, C = ends). Roman numbers before positions name the chains, in order. [ ]: non-standard residue; d: D form. The star is where a group is joined. Heptadecanoyl = CCCCCCCCCCCCCCCCC(=O)*; Phg = N[CH](C(=O)O)c1ccccc1
Can you tell me TGI for the items I'm about to list?

Using the record for C=C1CCC2C(C)(CO)C(O)CCC2(C)C1CC(O)C1=CCOC1=O (stereo not drawn) , report its TGI.
> 100 µM

N.N.N.N.O=S(=O)([O-])[O-].[Co+3].[OH3+].[OH3+] , same question.
> 100 µM

CC(C)[C@H](NC(=O)[C@@H](O)[C@H](N)Cc1ccccc1)C(=O)N[C@@H](Cc1ccccc1)C(=O)O , same question.
> 100 µM

Cc1cccc2c(=O)c3c(sc12)c(NCCN)nc1ccccc13 , same question.
1.54 µM

CN(C)CCOc1cccc(NC2=C(Cl)C(=O)C(Nc3cccc(OCCN(C)C)c3)=C(Cl)C2=O)c1 , same question.
3.27 µM

COC(C(=O)[C@@H](O)[C@@H](C)O)[C@@H]1Cc2cc3cc(O[C@H]4C[C@@H](O[C@H]5C[C@@H](O)[C@H](O)C(C)O5)[C@H](O)C(C)O4)c(C)c(O)c3c(O)c2C(=O)[C@H]1O[C@H]1C[C@@H](O[C@H]2C[C@@H](O[C@H]3C[C@@H](O)[C@@H](O)C(C)O3)[C@@H](O)C(C)O2)[C@H](O)C(C)O1 (stereo partly drawn) , same question.
> 32.5 µM

O=C(Nc1ccc(F)cc1)c1cc2ccc(O)cc2oc1=Nc1cccc(F)c1 , same question.
> 100 µM

CCCCCCCCCCCCCCCCC(=O)N1CCCC1C(=O)NCC(=O)NC(C(=O)N1CCCC1C(=O)NC(CO)C(=O)NC(Cc1ccc(O)cc1)C(=O)NC(CCCCNC(=O)C1CCCN1C(=O)C(CCCCN)NC(=O)C(CCCCN)NC(=O)C(CCCCN)NC(=O)C(CCCNC(=N)N)NC(=O)C(CCCCN)NC(=O)C(N)C(C)C)C(=O)NC(CC(C)C)C(=O)NC(CCCNC(=N)N)C(=O)N1CCCC1C(=O)NCC(N)=O)c1ccccc1 (stereo not drawn) (I: Heptadecanoyl-PG[Phg]PSYKLRPG-NH2 / II: H-VKRKKKP; amide I:7-II:C; configuration not given here) , same question.
> 100 µM

Cn1c(C2CC(C)(C)c3c2c2ccccc2n3C)cc2ccccc21 (stereo not drawn) , same question.
> 304 µM

COc1ccc(-c2oncc2-c2cc(OC)c3c(c2)OCO3)cc1 , same question.
> 100 µM

Cn1c(=O)c2c(nc3sc4ncccc4c(=O)n32)n(C)c1=O , same question.
> 100 µM

O=C1c2ccc3ccccc3c2CCC1N1CCCCC1 (stereo not drawn) , same question.
50.4 µM

CC1OC2OC3C(OCC(O)C3O)OC(=O)[C@]34CCC(C)(C)CC3C3=CCC5[C@@]6(C)C[C@H](O)[C@H](OC7OC(CO)C(O)C(O)C7OC7OC(COC(=O)CC(C)(O)CC(=O)OC1C(O)C2O)C(O)C(O)C7O)[C@@](C)(CO)C6CC[C@@]5(C)[C@]3(C)CC4 (stereo partly drawn) , same question.
4.45 µM
